Consider the following sequences and their measured binding signal readings.
# target.entity: MYC (p64);MAX (p21), in MYC:MAX (human;human, UniProt P01106-1;P61244-2 1-439;1-151, |)
# Sequence (P01106 16-454, chain 1 of 2): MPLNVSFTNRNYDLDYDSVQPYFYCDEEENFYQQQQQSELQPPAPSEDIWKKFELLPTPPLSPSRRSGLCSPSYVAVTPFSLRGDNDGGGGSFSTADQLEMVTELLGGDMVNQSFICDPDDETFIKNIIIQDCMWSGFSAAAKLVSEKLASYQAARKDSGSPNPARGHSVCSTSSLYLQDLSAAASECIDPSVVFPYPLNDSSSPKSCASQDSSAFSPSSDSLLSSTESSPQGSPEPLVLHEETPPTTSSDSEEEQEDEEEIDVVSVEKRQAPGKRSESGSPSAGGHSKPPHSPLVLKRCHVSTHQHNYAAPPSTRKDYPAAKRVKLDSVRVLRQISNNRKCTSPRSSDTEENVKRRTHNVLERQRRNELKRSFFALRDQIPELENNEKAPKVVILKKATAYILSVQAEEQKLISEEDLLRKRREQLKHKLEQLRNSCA
# Sequence (P61244 other isoform, or with tags, fused parts or gaps |, chain 2 of 2): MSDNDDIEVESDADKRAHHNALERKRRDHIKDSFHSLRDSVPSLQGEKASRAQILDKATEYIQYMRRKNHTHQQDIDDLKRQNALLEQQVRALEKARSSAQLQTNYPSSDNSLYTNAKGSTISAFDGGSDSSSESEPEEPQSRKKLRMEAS
# method: protein-binding microarray (anti-MAX antibody); PBM: 15 mM Tris-HCl pH 7.5, 100 mM KCl, 0.075% NP40, 7.5 mM beta-mercaptoethanol, 375 ng/ul BSA, 8 ng/ul poly(dA-dT):(dA-dT), 550 ng complex, 60 min, room tempe; high values mean tight binding
# conditions.used: protein: recombinant;recombinant; tags: 6xHis;6xHis; copies: 1;1; label: 3' end of printed strand (linker) attached to glass slide; dsDNA, one strand shown
Whole data set: some 5,000 sequences, median “log2 normalized fluorescence” near 0.089, cut for the highest 2% near 0.81. For the sample, the highest values were picked, then their nearest neighbours and some sequences at random.

Observe how each entry below is paired with its result.
CCGGCTTACACGTGGAATTAATAGCTAAGATTACTATATCGACG = 0.667 log2 normalized fluorescence
CCGGCTGGCACGTGCTATTAATAGCTAAGATTACTATATCGACG = 0.722 log2 normalized fluorescence

Attention now shifts to the item below.
Reported binding signal for CCGGCTGACACGTGGCGTTAATAGCTAAGATTACTATATCGACG was 0.519 log2 normalized fluorescence

---

# target.entity: MYC (p64);MAX (p21), in MYC:MAX (human;human, UniProt P01106-1;P61244-2 1-439;1-151, |)
# method: protein-binding microarray (anti-MAX antibody); PBM: 15 mM Tris-HCl pH 7.5, 100 mM KCl, 0.075% NP40, 7.5 mM beta-mercaptoethanol, 375 ng/ul BSA, 8 ng/ul poly(dA-dT):(dA-dT), 550 ng complex, 60 min, room tempe; high values mean tight binding
# conditions.used: protein: recombinant;recombinant; tags: 6xHis;6xHis; copies: 1;1; label: 3' end of printed strand (linker) attached to glass slide; dsDNA, one strand shown
Over roughly 5,000 sequences, “log2 normalized fluorescence” has its median near 0.089; the highest 2% begin near 0.81. This excerpt belongs to a sample that is enriched for the highest values.
measured.property: binding signal

Observe how each entry below is paired with its result.
CCGGCTGACACGTGACATTAATAGCTAAGATTACTATATCGACG = 0.756 log2 normalized fluorescence
CCGGCAGACATGTGGTGTTAATAGCTAAGATTACTATATCGACG = 0.734 log2 normalized fluorescence
CCGGCAGATACGTGGTGTTAATAGCTAAGATTACTATATCGACG = 0.257 log2 normalized fluorescence

Reported binding signal for CCGGCTGAGGGCTTGTATTAATAGCTAAGATTACTATATCGACG was 0.0447 log2 normalized fluorescence

Reported binding signal for CCGGCTGACACGTGCCATTAATAGCTAAGATTACTATATCGACG was 1 log2 normalized fluorescence

Reported binding signal for CCGGCTGACACGTGCGCTTAATAGCTAAGATTACTATATCGACG was 0.633 log2 normalized fluorescence

Reported binding signal for CCGGCTGACACGTGATTTTAATAGCTAAGATTACTATATCGACG was 0.626 log2 normalized fluorescence

Reported binding signal for CCGGCTGAGTGATCGTATTAATAGCTAAGATTACTATATCGACG was 0.194 log2 normalized fluorescence

Reported binding signal for CCGGCGGACACGTGGAGTTAATAGCTAAGATTACTATATCGACG was 0.745 log2 normalized fluorescence

Reported binding signal for CCGGCTGAATCAAAGTATTAATAGCTAAGATTACTATATCGACG was -0.00984 log2 normalized fluorescence

Reported binding signal for CCGGCTGACACGTGGATTTAATAGCTAAGATTACTATATCGACG was 0.893 log2 normalized fluorescence

Reported binding signal for CCGGCCAACACGTTGTATTAATAGCTAAGATTACTATATCGACG was 0.669 log2 normalized fluorescence

---

# target.entity: MYC (p64);MAX (p21), in MYC:MAX (human;human, UniProt P01106-1;P61244-2 1-439;1-151, |)
# method: protein-binding microarray (anti-MAX antibody); PBM: 15 mM Tris-HCl pH 7.5, 100 mM KCl, 0.075% NP40, 7.5 mM beta-mercaptoethanol, 375 ng/ul BSA, 8 ng/ul poly(dA-dT):(dA-dT), 550 ng complex, 60 min, room tempe; high values mean tight binding
# conditions.used: protein: recombinant;recombinant; tags: 6xHis;6xHis; copies: 1;1; label: 3' end of printed strand (linker) attached to glass slide; dsDNA, one strand shown
Over roughly 5,000 sequences, “log2 normalized fluorescence” has its median near 0.089; the highest 2% begin near 0.81. For the sample, the highest values were picked, then their nearest neighbours and some sequences at random.
measured.property: binding signal

CCGGCTGACACTTTGTATTAATAGCTAAGATTACTATATCGACG = 0.302 log2 normalized fluorescence

Reported binding signal for CCGGCTGACCAAAGGTATTAATAGCTAAGATTACTATATCGACG was 0.0357 log2 normalized fluorescence

Reported binding signal for CCGGCTGGCACGTGGTTTTAATAGCTAAGATTACTATATCGACG was 0.67 log2 normalized fluorescence

Reported binding signal for CCGGCCGACGCGTGGTATTAATAGCTAAGATTACTATATCGACG was 0.626 log2 normalized fluorescence

Reported binding signal for CCGGCTTGCACGTGGTTTTAATAGCTAAGATTACTATATCGACG was 0.716 log2 normalized fluorescence

Reported binding signal for CCGGCGTGCACGTGGTATTAATAGCTAAGATTACTATATCGACG was 0.856 log2 normalized fluorescence

Reported binding signal for CCGGCTGACTGTGAGTATTAATAGCTAAGATTACTATATCGACG was 0.00564 log2 normalized fluorescence

Reported binding signal for CCGGCTCACACGAGGTTTTAATAGCTAAGATTACTATATCGACG was 0.866 log2 normalized fluorescence

Reported binding signal for CCGGCTGAAACAACGTATTAATAGCTAAGATTACTATATCGACG was 0.159 log2 normalized fluorescence

Reported binding signal for CCGGCTGACACGTGTGATTAATAGCTAAGATTACTATATCGACG was 0.872 log2 normalized fluorescence

Reported binding signal for CCGGCTCACATGTGGTATTAATAGCTAAGATTACTATATCGACG was 0.918 log2 normalized fluorescence

Reported binding signal for CCGGCTCACACGTTTTATTAATAGCTAAGATTACTATATCGACG was 0.662 log2 normalized fluorescence

Reported binding signal for CCGGCTGAGGGTAGGTATTAATAGCTAAGATTACTATATCGACG was 0.0237 log2 normalized fluorescence

Reported binding signal for CCGGCTGATGGCGGGTATTAATAGCTAAGATTACTATATCGACG was 0.232 log2 normalized fluorescence

Reported binding signal for CCGGCTCACACGTGGTTTTAATAGCTAAGATTACTATATCGACG was 0.78 log2 normalized fluorescence

Reported binding signal for CCGGCTTGCACGTGGTATTAATAGCTAAGATTACTATATCGACG was 1.01 log2 normalized fluorescence

---

# target.entity: MYC (p64);MAX (p21), in MYC:MAX (human;human, UniProt P01106-1;P61244-2 1-439;1-151, |)
# method: protein-binding microarray (anti-MAX antibody); PBM: 15 mM Tris-HCl pH 7.5, 100 mM KCl, 0.075% NP40, 7.5 mM beta-mercaptoethanol, 375 ng/ul BSA, 8 ng/ul poly(dA-dT):(dA-dT), 550 ng complex, 60 min, room tempe; high values mean tight binding
# conditions.used: protein: recombinant;recombinant; tags: 6xHis;6xHis; copies: 1;1; label: 3' end of printed strand (linker) attached to glass slide; dsDNA, one strand shown
Over roughly 5,000 sequences, “log2 normalized fluorescence” has its median near 0.089; the highest 2% begin near 0.81. The entries come from a sample that favours the highest values as a whole.
measured.property: binding signal

CCGGCAACCACGTGGTATTAATAGCTAAGATTACTATATCGACG = 0.742 log2 normalized fluorescence
CCGGCTGATACGTGGTCTTAATAGCTAAGATTACTATATCGACG = 0.408 log2 normalized fluorescence
CCGGCTGAGAGACGGTATTAATAGCTAAGATTACTATATCGACG = -0.00994 log2 normalized fluorescence
CCGGCTATAACGTGGTATTAATAGCTAAGATTACTATATCGACG = 0.627 log2 normalized fluorescence
CCGGCTGAGACGTGGTCTTAATAGCTAAGATTACTATATCGACG = 0.229 log2 normalized fluorescence

Recorded binding signal for CCGGCTGCCACGTGGTATTAATAGCTAAGATTACTATATCGACG on MYC (p64);MAX (p21), in MYC:MAX (human;human, UniProt P01106-1;P61244-2 1-439;1-151, |) was 0.82 log2 normalized fluorescence

Recorded binding signal for CCGGCTGAATTACTGTATTAATAGCTAAGATTACTATATCGACG on MYC (p64);MAX (p21), in MYC:MAX (human;human, UniProt P01106-1;P61244-2 1-439;1-151, |) was 0.0701 log2 normalized fluorescence

Recorded binding signal for CCGGCGCAAACGTGGTATTAATAGCTAAGATTACTATATCGACG on MYC (p64);MAX (p21), in MYC:MAX (human;human, UniProt P01106-1;P61244-2 1-439;1-151, |) was 0.579 log2 normalized fluorescence

Recorded binding signal for CCGGCTGACACACGGTCTTAATAGCTAAGATTACTATATCGACG on MYC (p64);MAX (p21), in MYC:MAX (human;human, UniProt P01106-1;P61244-2 1-439;1-151, |) was 0.354 log2 normalized fluorescence

Recorded binding signal for CCGGCTGAAGACCAGTATTAATAGCTAAGATTACTATATCGACG on MYC (p64);MAX (p21), in MYC:MAX (human;human, UniProt P01106-1;P61244-2 1-439;1-151, |) was 0.106 log2 normalized fluorescence

Recorded binding signal for CCGGCTAACACGTGGTTTTAATAGCTAAGATTACTATATCGACG on MYC (p64);MAX (p21), in MYC:MAX (human;human, UniProt P01106-1;P61244-2 1-439;1-151, |) was 1.01 log2 normalized fluorescence

Recorded binding signal for CCGGCTTAATCGTGGTATTAATAGCTAAGATTACTATATCGACG on MYC (p64);MAX (p21), in MYC:MAX (human;human, UniProt P01106-1;P61244-2 1-439;1-151, |) was 0.374 log2 normalized fluorescence

Recorded binding signal for CCGGCCACCACGTGGTATTAATAGCTAAGATTACTATATCGACG on MYC (p64);MAX (p21), in MYC:MAX (human;human, UniProt P01106-1;P61244-2 1-439;1-151, |) was 0.975 log2 normalized fluorescence

Recorded binding signal for CCGGCGAACACGTGGTATTAATAGCTAAGATTACTATATCGACG on MYC (p64);MAX (p21), in MYC:MAX (human;human, UniProt P01106-1;P61244-2 1-439;1-151, |) was 0.76 log2 normalized fluorescence

Recorded binding signal for CCGGCTGATGTATCGTATTAATAGCTAAGATTACTATATCGACG on MYC (p64);MAX (p21), in MYC:MAX (human;human, UniProt P01106-1;P61244-2 1-439;1-151, |) was 0.124 log2 normalized fluorescence

Recorded binding signal for CCGGCTGCCACGTCGTATTAATAGCTAAGATTACTATATCGACG on MYC (p64);MAX (p21), in MYC:MAX (human;human, UniProt P01106-1;P61244-2 1-439;1-151, |) was 0.37 log2 normalized fluorescence

Recorded binding signal for CCGGCGGACACGAGGTATTAATAGCTAAGATTACTATATCGACG on MYC (p64);MAX (p21), in MYC:MAX (human;human, UniProt P01106-1;P61244-2 1-439;1-151, |) was 0.562 log2 normalized fluorescence

Recorded binding signal for CCGGCTGCGACGTGGTATTAATAGCTAAGATTACTATATCGACG on MYC (p64);MAX (p21), in MYC:MAX (human;human, UniProt P01106-1;P61244-2 1-439;1-151, |) was 0.41 log2 normalized fluorescence

Measured values drawn from paper PMC5515408 for this set.
